All figures here come from PubChem BioAssay AID623911.

Recorded manual score for the following molecules
- subject_of_test: G protein-activated inward rectifier potassium channel 2 (Homo sapiens) + G protein-activated inward rectifier potassium channel 1 (Homo sapiens) (UniProt P48051+P48549)
- Sequence (P48051 whole entry, looked up): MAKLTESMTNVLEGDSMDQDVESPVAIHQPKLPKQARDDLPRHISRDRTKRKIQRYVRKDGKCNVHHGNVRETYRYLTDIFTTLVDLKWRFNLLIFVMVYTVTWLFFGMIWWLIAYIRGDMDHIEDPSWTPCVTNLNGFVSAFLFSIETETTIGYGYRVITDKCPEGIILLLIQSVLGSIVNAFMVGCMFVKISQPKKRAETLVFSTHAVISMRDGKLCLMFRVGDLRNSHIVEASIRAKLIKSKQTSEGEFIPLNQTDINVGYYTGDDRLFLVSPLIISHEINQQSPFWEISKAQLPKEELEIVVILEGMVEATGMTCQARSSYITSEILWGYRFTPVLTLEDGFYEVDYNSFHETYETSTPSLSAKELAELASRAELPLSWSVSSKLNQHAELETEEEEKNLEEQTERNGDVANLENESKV
- Sequence (P48549 whole entry, looked up): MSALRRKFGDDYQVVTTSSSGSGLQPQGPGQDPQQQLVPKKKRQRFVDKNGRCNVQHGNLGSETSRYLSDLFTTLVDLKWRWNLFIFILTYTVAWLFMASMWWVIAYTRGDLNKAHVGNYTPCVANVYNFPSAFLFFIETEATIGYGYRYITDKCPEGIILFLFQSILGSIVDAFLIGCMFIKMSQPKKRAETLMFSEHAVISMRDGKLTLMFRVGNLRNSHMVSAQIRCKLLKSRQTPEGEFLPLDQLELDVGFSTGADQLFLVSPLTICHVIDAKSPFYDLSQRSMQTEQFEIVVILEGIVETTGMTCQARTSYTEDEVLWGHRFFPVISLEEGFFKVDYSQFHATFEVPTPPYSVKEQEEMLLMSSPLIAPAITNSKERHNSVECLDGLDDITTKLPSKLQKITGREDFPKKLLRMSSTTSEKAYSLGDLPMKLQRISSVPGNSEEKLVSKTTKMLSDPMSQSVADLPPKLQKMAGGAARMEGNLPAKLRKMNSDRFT
- measurement_notes: GIRK1/2 thallium flux modulators, retest, confirmation, cell-based, HEK293 rmGlu8/hGIRK1/2, FluoZin-2 (AID 623911)
- settings: HEK293 rmGlu8/hGIRK1/2, thallium flux FluoZin-2; actives lie on both sides; glutamate co-added at its EC20 level
Screen size: about 2,100 compounds; about 770 (37%) were called active. Some of the results follow.
Number only, please.

Below: 5 molecules and their reported manual score.
molecule=Cc1cc(NC(=O)CSc2nc3ccsc3c(=O)n2NC(=O)c2ccccc2)no1 quantitative_result=0
molecule=CC(C)CCn1c(S(=O)(=O)O)nc2ccccc21 quantitative_result=0
molecule="CCCCN1C(=O)c2ccccc2C1C(=O)NC1CCCC1 (configuration not stated)" quantitative_result=0
molecule=CCCN(CCC)C(=O)CSc1nc2ccccc2c(=O)n1C1CCCC1 quantitative_result=-1
molecule=CCCCCn1c(NCc2ccco2)nc2ccccc21 quantitative_result=-1

# input Please give the measured manual score for this molecule: COC(=O)c1ccc2c(=O)n(C3CCCCC3)c(SCC#N)nc2c1
# output 0

# input Please give the measured manual score for this molecule: Cc1ccc(OCC(=O)Nc2ccc(C)c(S(=O)(=O)N3CCCCC3)c2)c([N+](=O)[O-])n1
# output 1

# input Please give the measured manual score for this molecule: CCN(CC)C(=O)CSc1nc2ccccc2c(=O)n1-c1ccccc1OC
# output 0

# input Please give the measured manual score for this molecule: Cc1ccccc1C(=O)NC(=S)Nc1ccc(Oc2ccc(Cl)cc2)cc1
# output 0

# input Please give the measured manual score for this molecule: CCC(C)NC(=O)CSc1nc2ccccc2c(=O)n1Cc1ccc(OC)cc1 (configuration not stated)
# output 0

# input Please give the measured manual score for this molecule: CCSc1nnc(NC(=O)CC)s1
# output 0

# input Please give the measured manual score for this molecule: COc1cc(NC(=O)CSc2nccc(C)n2)c(C)cc1[N+](=O)[O-]
# output 0

# input Please give the measured manual score for this molecule: COc1cccc(OCCc2c(C)n[nH]c2C)c1
# output 0

###

- subject_of_test: G protein-activated inward rectifier potassium channel 2 (Homo sapiens) + G protein-activated inward rectifier potassium channel 1 (Homo sapiens) (UniProt P48051+P48549)
- measurement_notes: GIRK1/2 thallium flux modulators, retest, confirmation, cell-based, HEK293 rmGlu8/hGIRK1/2, FluoZin-2 (AID 623911)
- settings: HEK293 rmGlu8/hGIRK1/2, thallium flux FluoZin-2; actives lie on both sides; glutamate co-added at its EC20 level
In all, about 2,100 compounds went through this assay and about 770 (37%) were called active. The list shows a part of the results.
quantity: manual score
Number only, please.

Below: 2 compounds and their reported manual score.
molecule=O=C(O)CC/C(=C\c1cc([N+](=O)[O-])ccc1Cl)c1nc2ccccc2s1 quantitative_result=-0.5
molecule=O=C(Nc1nnc(-c2ccc(Cl)cc2)o1)C1=COCCO1 quantitative_result=0

// switching to the query compound
# input Please give the measured manual score for this compound: CN(C)/C=C/C(=O)/C=C/c1cn(-c2ncc(C(F)(F)F)cc2Cl)c2ccccc12
# output 0

###

- subject_of_test: G protein-activated inward rectifier potassium channel 2 (Homo sapiens) + G protein-activated inward rectifier potassium channel 1 (Homo sapiens) (UniProt P48051+P48549)
- measurement_notes: GIRK1/2 thallium flux modulators, retest, confirmation, cell-based, HEK293 rmGlu8/hGIRK1/2, FluoZin-2 (AID 623911)
- settings: HEK293 rmGlu8/hGIRK1/2, thallium flux FluoZin-2; actives lie on both sides; glutamate co-added at its EC20 level
Hit rate of the full screen: of about 2,100 compounds, about 770 (37%) were called active.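 How the source made its calls: active means by-eye trace score of 1 for enhancers or -1 for inhibitors, so actives lie on both sides (some results past the limit were not filed as active); inactive means score 0, or 3 fluorescent, or 4 baseline rise.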 The list shows a part of the results.
Outcomes you can answer with include only these: active, inactive

Below, 6 compounds whose answers are already recorded.
compound=Cc1cccc(N2C(=O)CS/C2=N\NC(=O)c2ccc(Cl)cc2)c1C assigned_class=active
compound=CSc1ccccc1NC(=O)Nc1ccccc1 assigned_class=active
compound="COC(=O)c1sc(N2C(=O)C(O)=C(C(=O)c3ccc(C)o3)C2c2ccc(F)cc2)nc1C (configuration not stated)" assigned_class=inactive
compound=CC(C)c1ccc(-n2cccc2/C=C2/C(=N)N3C=CSC3=NC2=O)cc1 assigned_class=inactive
compound="CC(C)CCNC(=O)C(C)N(C(=O)Cn1nnc(-c2ccc(F)cc2)n1)C1CCCC1 (configuration not stated)" assigned_class=inactive
compound=Cc1ccccc1OCC(=O)Nc1ccccc1N1CCOCC1 assigned_class=active

Next item in the queue.
# input Give the logged outcome of this assay for the following compound: CC1(C)Cc2cccc(OCC(=O)Nc3ccccc3N3CCOCC3)c2O1
# output inactive
